FYI, the data here is from patent US20230142739A1.

Biological target: p65_45/14-3-3γ (Homo sapiens, UniProt P61981)
Sequence (P61981 whole entry, other chains not shown, the tested form may be a part): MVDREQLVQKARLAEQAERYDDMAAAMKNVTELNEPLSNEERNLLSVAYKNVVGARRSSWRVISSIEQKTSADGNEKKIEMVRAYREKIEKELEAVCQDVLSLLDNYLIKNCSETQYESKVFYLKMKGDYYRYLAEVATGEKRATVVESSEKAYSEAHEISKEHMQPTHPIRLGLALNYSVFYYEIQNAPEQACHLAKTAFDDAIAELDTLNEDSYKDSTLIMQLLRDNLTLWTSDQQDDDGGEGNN
Test: Fluorescence anisotropy protein titration, p65_45 peptide/14-3-3γ in presence of 1 mM fragment
Type: binding
Parameters: The full length 14-3-3γ was dialysis against 25 mM HEPES pH7.5; made in house; host or cells: E. coli BL21(DE3), pPROEX HTb
Conditions: Table 9; fold-change of apparent KD vs DMSO control
Attribute measured: SF
Please state the value as a number alone, without comment.

CC1CCc2ccccc2N1S(=O)(=O)c1ccc(C=O)cc1 (racemic) [24b]	36
O=Cc1ccc(S(=O)(=O)N2CCOc3ccc(F)cc32)cc1 [24g]	22

Let us examine a further case.
Name the reported SF value associated with the molecule O=Cc1ccc(S(=O)(=O)N2CCOc3ccccc32)cc1 [24f]
23
